Numbers sourced from patent US20250368649A1.

log10(IC50) overview
- target of assay: KRas G12A (Homo sapiens, UniProt P01116, G12A)
- Sequence (P01116 1-169 isoform P01116-2 G12A): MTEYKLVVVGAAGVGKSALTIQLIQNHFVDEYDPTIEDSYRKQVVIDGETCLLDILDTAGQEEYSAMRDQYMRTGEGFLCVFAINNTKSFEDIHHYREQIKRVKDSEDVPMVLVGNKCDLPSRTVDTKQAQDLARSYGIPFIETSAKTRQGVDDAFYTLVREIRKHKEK
- Type: binding
- setup conditions: TR-FRET displacement, read-out: Binding to KRas (IC50 nM) G12A
Reminder: these figures are log10 of reported IC50, in nM before transformation.

Use these answered entries as a reference point.
{"molecule": "O=C1NC(=O)C2CN(c3nc(OCC45CCCN4CCC5)nc4c3CCN(c3cc(O)cc(Cl)c3C3CC3)C4)CC12 (stereo not shown)", "log10(IC50)": 0.90}
{"molecule": "Cc1cc2[nH]ncc2c(N2CCc3c(nc(OCC45CCCN4CCC5)nc3N3CCC[C@]4(C3)NC(=O)NC4=O)C2)c1C", "log10(IC50)": 0.60}
{"molecule": "CCc1cccc2cccc(N3CCc4c(nc(OCC5(CN(C)C)CC5)nc4NC4CC(n5ccnn5)C4)C3)c12 (stereo not shown)", "log10(IC50)": 4.13}

Exercise: Can you share its log10(IC50)? I mean this molecule: CCc1cccc2cccc(N3CCc4c(nc(OCC5(CN(C)C)CC5)nc4NCc4cc(CO)[nH]n4)C3)c12
Solution: 4.23

Exercise: Can you share its log10(IC50)? I mean this molecule: CCc1cccc2cccc(N3CCc4c(nc(OCC5(CN(C)C)CC5)nc4N4CCCn5nc(CO)cc5C4)C3)c12
Solution: 3.35

Exercise: Can you share its log10(IC50)? I mean this molecule: CCc1cccc2cccc(N3CCc4c(nc(OCC5(CN(C)C)CC5)nc4NCc4cnc(C)nc4N)C3)c12
Solution: 3.96
